- Method Description: ATG_PBREM_CIS: Attagene CIS-FACTORIAL HepG2 Assay for human Phenobarbital-responsive Enhancer Module (PBREM) (AID 2282955)
- Condition Label: HepG2 PBREM cis-reporter, Attagene multiplexed transcription; actives raise or lower the signal
The source made the active and inactive calls. Rule for the calls: active = hit-call score of the fitted dose curve at least 0.9, where 1 is the maximum; inactive = score below 0.9.
Labels: active, inactive

INSERT INTO measurements (molecule, cat) VALUES
  ('C=CC(=C)CCC=C(C)C', 'inactive'),
  ('CCNc1ccccc1', 'inactive'),
  ('CCCCCCCCCCCCc1ccccc1', 'inactive'),
  ('COC(=O)c1c(Cl)c(Cl)c(C(=O)OC)c(Cl)c1Cl', 'inactive'),
  ('Cc1ccc(N)cc1O', 'inactive'),
  ('NC(=O)NO', 'inactive'),
  ('O=C(OC[C@H]1O[C@@H](OC(=O)c2cc(O)c(O)c(OC(=O)c3cc(O)c(O)c(O)c3)c2)[C@H](OC(=O)c2cc(O)c(O)c(OC(=O)c3cc(O)c(O)c(O)c3)c2)[C@@H](OC(=O)c2cc(O)c(O)c(OC(=O)c3cc(O)c(O)c(O)c3)c2)[C@@H]1OC(=O)c1cc(O)c(O)c(OC(=O)c2cc(O)c(O)c(O)c2)c1)c1cc(O)c(O)c(OC(=O)c2cc(O)c(O)c(O)c2)c1', 'inactive'),
  ('CCOC(=O)c1ccc(C2CCC(NC[C@H](O)COc3ccc(O)c(NS(C)(=O)=O)c3)CC2)cc1 (some centres undefined)', 'active'),
  ('O=C(O)CC(O)C(=O)O (centres undefined)', 'inactive'),
  ('CC(C)=CCCC(C)=CC=O', 'inactive'),
  ('C1N2CN3CN1CN(C2)C3', 'inactive'),
  ('CCCCC(CC)COC(=O)CCCCCCCCC(=O)OCC(CC)CCCC (centres undefined)', 'inactive'),
  ('CCCCCCCCO', 'inactive'),
  ('C1=CCCC=CCCC=CCC1', 'inactive');

====

- Method Description: BSK_3C_TissueFactor: BioMAP Diversity Plus: 3C Assay for Tissue Factor Biomarker Activity (AID 2282997)
- Condition Label: BioMAP 3C HUVEC, tissue factor biomarker readout; actives raise or lower the signal
Active and inactive are the calls of the source. The calls were made as follows: active = hit-call score of the fitted dose curve at least 0.9, where 1 is the maximum; inactive = score below 0.9.
Labels: class 1 for active, class 0 for inactive

INSERT INTO assay_data (compound, cat) VALUES
  ('O=C(O)CC(O)C(=O)O (configuration not stated)', 'class 0'),
  ('CCCCCCc1ccc(O)cc1O', 'class 1'),
  ('CCOc1cccc(-n2cc(C(=O)N3CCN(c4cc(C(=O)O)c5ccccc5c4)CC3)nc2-c2ccc(C)cc2)c1', 'class 1'),
  ('CC(C)=CCCC(C)CCO (configuration not stated)', 'class 0'),
  ('Cc1ccc(C)c(O)c1', 'class 0'),
  ('CCCCC(CC)COC(=O)CCCCCCCCC(=O)OCC(CC)CCCC (configuration not stated)', 'class 0'),
  ('CC(=O)c1ccc2c(c1)[C@H](NC(=O)c1ccc(F)cc1)[C@@H](O)C(C)(C)O2', 'class 0');

====

- Method Description: ATG_DR4_LXR_CIS: Attagene CIS-FACTORIAL HepG2 Assay for human Liver X Receptor (LXR), DR4 submotif (AID 2282929)
- Condition Label: HepG2 Attagene DR4 cis-reporter, mRNA transcription; actives raise or lower the signal
Activity calls are given as the source filed them. Rule for the calls: active = hit-call score of the fitted dose curve at least 0.9, where 1 is the maximum; inactive = score below 0.9.
Labels: true = active, false = inactive

INSERT INTO measurements (molecule, cat) VALUES
  ('Cn1cnc([N+](=O)[O-])c1Sc1ncnc2nc[nH]c12', 'false'),
  ('C[C@](N)(Cc1ccc(O)c(O)c1)C(=O)O', 'false'),
  ('CCNc1ccccc1', 'false'),
  ('Cn1c(=O)cc(Oc2ccc(F)cc2F)c2cnc(NCC(C)(C)O)nc21', 'false'),
  ('CC[C@H]1CC[C@H](NCc2cc3c(cc2OC)[C@H]2C[C@H]2C(=O)N3C)[C@H](c2ccccc2)N1', 'false'),
  ('O=C1CCC(N2C(=O)c3ccccc3C2=O)C(=O)N1 (stereo unspecified)', 'false'),
  ('O=C(O)c1cccc(N(Cc2cccnc2)c2ccc(OC(F)F)c(OC(F)F)c2)c1', 'false'),
  ('COc1ccc(/C=C/S(=O)(=O)NC(=O)c2ccc(C)cc2Cl)cc1', 'false'),
  ('O=C(O)c1cc(N=Nc2ccc(S(=O)(=O)Nc3ccccn3)cc2)ccc1O', 'false'),
  ('CCN(C(=O)c1cc(C)cc(OC[C@H](C)Nc2ccncc2)c1)C(C)C', 'true'),
  ('Cc1ccc(C)c(O)c1', 'false');
